Origin of the recorded values: patent US8420693B2

- System: C33A cervical carcinoma cells
- EXPERIMENT SUMMARY: Cancer cell viability by cellular ATP levels (ViaLight), C33A
- Format: cell-based
- CONDITION DETAILS: Homo sapiens, C-33-A, 72 h, 3 days of incubation, ATP levels relative to untreated control
# IC50 listing for each entry below
MEASUREMENT TYPE: IC50 (nM)

| MOLECULAR STRING | MEASUREMENT TYPE | QUANTITATIVE READOUT |
| --- | --- | --- |
| COC1=CC(c2ccc(Br)cc2)=NC1=Cc1[nH]c(C)cc1C | IC50 | 1150 |
| COC1=CC(c2ccc(OCCN3CCCC3)cc2)=NC1=Cc1[nH]c(C)cc1C | IC50 | 690 |
| COC1=CC(c2ccc(SC(C)C)cc2)=NC1=Cc1[nH]c(C)cc1C | IC50 | 1180 |

====

- Tested on: C33A cervical carcinoma cells
- EXPERIMENT SUMMARY: Cancer cell viability by cellular ATP levels (ViaLight), C33A
- Assay type: cell-based
- CONDITION DETAILS: Homo sapiens, C-33-A, 72 h, 3 days of incubation, ATP levels relative to untreated control
# IC50 listing for each entry below

| COMPOUND | IC50 [nM] |
| --- | --- |
| COC1=CC(c2ccc(F)cc2F)=NC1=Cc1[nH]c(C)cc1C [Compound 3] | 3000 |
| COC1=CC(c2ccc(OC)cc2OC)=NC1=Cc1[nH]c(C)cc1C [Compound 16] | 3000 |
| COC1=CC(c2cc3ccccc3s2)=NC1=Cc1[nH]c(C)cc1C [Compound 10] | 3000 |
